Data provenance: paper PMC10671360

target: recombinant α-syn fibrils (Homo sapiens); construct: made in house; assay: Competition binding assay against [^3H]DCVJ, α-syn fibrils; conditions: ratio of Ki, [^3H]DCVJ was used
Endpoint name: Selectivity tau/α-syn

Below: 2 molecules and their reported Selectivity tau/α-syn.
Request: Param request: Selectivity tau/α-syn | system recombinant α-syn fibrils (Homo sapiens) | item FCCOc1cnc(-c2csc(-c3nc(-c4cnc5c(c4)OCO5)cs3)n2)nc1
Result: 469.6

Request: Param request: Selectivity tau/α-syn | system recombinant α-syn fibrils (Homo sapiens) | item FCCOCCOc1cnc(-c2csc(-c3nc(-c4ccc5c(c4)OCO5)cs3)n2)nc1
Result: 874.4

a. Fc1ccc(-c2csc(-c3nc(-c4ccc5c(c4)OCO5)cs3)n2)cn1
b. FCCOc1cnc(-c2csc(-c3nc(-c4ccc5c(c4)OCO5)cs3)n2)nc1
Request: When a and b are compared, which has the higher number for Selectivity tau/α-syn? Your answer should be the label attached to the chosen record.
Result: a

====

molecular target: Aβ1−42 fibrils (Homo sapiens, UniProt P05067); construct: 1 mg of β-amyloid1–42 peptide (Abcam, Cambridge, UK); purchased Abcam; test: Competition binding assay against [^3H]DCVJ, Aβ1−42 fibrils; settings: [^3H]DCVJ was used (10 nM); Aβ1−42 aggregates 125 nM; read-out: Ki Aβ
Sequence (P05067 672-713): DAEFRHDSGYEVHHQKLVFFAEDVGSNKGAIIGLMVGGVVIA
pKi: −log10 of the molar value.
Endpoint name: pKi

Request: Supply reported pKi belonging to this compound: FCCOCCOc1cnc(-c2csc(-c3nc(-c4ccc5c(c4)OCO5)cs3)n2)nc1 [f6]
Result: 6.70

a. FCCOc1cnc(-c2csc(-c3nc(-c4ccc5c(c4)OCO5)cs3)n2)nc1 [f5]
b. FCCOc1cnc(-c2csc(-c3nc(-c4cnc5c(c4)OCO5)cs3)n2)nc1 [f4]
c. Fc1ncc(-c2csc(-c3nc(-c4cnc5c(c4)OCO5)cs3)n2)cn1 [d10]
Request: List from greatest to least pKi. Your reply should list the labels following the order given in the request.
Result: a, b, c
(a: 6.87, b: 6.60, c: 6.39)

====

molecular target: recombinant α-syn fibrils (Homo sapiens); construct: made in house; experiment: Competition binding assay against [^3H]DCVJ, α-syn fibrils; settings: [^3H]DCVJ was used (10 nM); α-synuclein aggregates 125 nM
pKi: −log10 of the molar value.
Endpoint name: pKi

1. COc1ccc(-c2csc(-c3nc(-c4cnc5c(c4)OCO5)cs3)n2)cc1OCCOCCF
2. Fc1ncc(-c2csc(-c3nc(-c4cnc5c(c4)OCO5)cs3)n2)cn1
Request: When 1 and 2 are compared, which has the higher number for pKi? Your answer should be the label attached to the chosen record.
Result: 1
(1: 9.08, 2: 8.87)

====

biological target: recombinant α-syn fibrils (Homo sapiens, UniProt P37840); construct: made in house; assay: Competition binding assay against [^3H]PiB, α-syn fibrils; conditions: ratio of Ki, [^3H]PiB was used
Endpoint name: Selectivity tau/α-syn

Request: Param request: Selectivity tau/α-syn | system recombinant α-syn fibrils (Homo sapiens, UniProt P37840) | item FCCOCCOCCOc1ccc(-c2csc(-c3nc(-c4cnc5c(c4)OCO5)cs3)n2)cc1
Result: 1068.5

a. FCCOCCOc1cnc(-c2csc(-c3nc(-c4ccc5c(c4)OCO5)cs3)n2)nc1
b. FCCOc1cnc(-c2csc(-c3nc(-c4cnc5c(c4)OCO5)cs3)n2)nc1
Request: When a and b are compared, which has the higher number for Selectivity tau/α-syn? Your answer should be the label attached to the chosen record.
Result: b

1. COc1cnc(-c2csc(-c3nc(-c4ccc5c(c4)OCO5)cs3)n2)nc1
2. COc1ccc(-c2csc(-c3nc(-c4cnc5c(c4)OCO5)cs3)n2)c(OC)c1
3. FCCOc1cnc(-c2csc(-c3nc(-c4ccc5c(c4)OCO5)cs3)n2)nc1
4. Fc1ncc(-c2csc(-c3nc(-c4cnc5c(c4)OCO5)cs3)n2)cn1
Request: Would you mind ranking these compounds by ascending Selectivity tau/α-syn? Your reply should list the labels following the order given in the request.
Result: 4, 3, 1, 2

====

biological target: recombinant α-syn fibrils (Homo sapiens); construct: made in house; experiment: Competition binding assay against [^3H]PiB, α-syn fibrils; settings: ratio of Ki, [^3H]PiB was used
Endpoint name: Selectivity Aβ/α-syn

Below: 3 compounds and their reported Selectivity Aβ/α-syn.
Request: Supply reported Selectivity Aβ/α-syn belonging to this compound: FCCOCCOCCOc1cnc(-c2csc(-c3nc(-c4ccc5c(c4)OCO5)cs3)n2)nc1
Result: 65.3

Request: Supply reported Selectivity Aβ/α-syn belonging to this compound: FCCOCCOc1ccc(-c2csc(-c3nc(-c4cnc5c(c4)OCO5)cs3)n2)c(OCCOCCF)c1
Result: 168.9

Request: Supply reported Selectivity Aβ/α-syn belonging to this compound: FCCOCCOCCOc1ccc(-c2csc(-c3nc(-c4cnc5c(c4)OCO5)cs3)n2)cc1F
Result: 40.1

A. COc1ccc(-c2csc(-c3nc(-c4cnc5c(c4)OCO5)cs3)n2)cc1OCCOCCF
B. COc1ccc(-c2csc(-c3nc(-c4cnc5c(c4)OCO5)cs3)n2)cc1F
Request: Kindly identify the item with the lower Selectivity Aβ/α-syn figure among these two: A and B Your answer should be the label attached to the chosen record.
Result: B
(B: 34.1, A: 49.6)

====

biological target: recombinant α-syn fibrils (Homo sapiens); construct: made in house; assay: Competition binding assay against [^3H]PiB, α-syn fibrils
Endpoint name: Ki (nM)

Request: Supply reported Ki belonging to this molecule: FCCOCCOc1cnc(-c2csc(-c3nc(-c4cnc5c(c4)OCO5)cs3)n2)nc1
Result: 2.3

Request: Supply reported Ki belonging to this molecule: FCCOCCOCCOc1ccc(-c2csc(-c3nc(-c4cnc5c(c4)OCO5)cs3)n2)cc1F
Result: 0.93

Request: Supply reported Ki belonging to this molecule: FCCOCCOc1ccc(-c2csc(-c3nc(-c4cnc5c(c4)OCO5)cs3)n2)c(OCCOCCF)c1
Result: 1.31

Request: Supply reported Ki belonging to this molecule: FCCOCCOCCOc1cnc(-c2csc(-c3nc(-c4cnc5c(c4)OCO5)cs3)n2)nc1
Result: 0.38

Request: Supply reported Ki belonging to this molecule: FCCOc1ccc(-c2csc(-c3nc(-c4ccc5c(c4)OCO5)cs3)n2)cc1
Result: 3.71

a. FCCOCCOc1cnc(-c2csc(-c3nc(-c4ccc5c(c4)OCO5)cs3)n2)nc1
b. Fc1ccc(-c2csc(-c3nc(-c4ccc5c(c4)OCO5)cs3)n2)cn1
c. FCCOCCOCCOc1ccc(-c2csc(-c3nc(-c4cnc5c(c4)OCO5)cs3)n2)cc1
Request: List from greatest to least Ki. Your reply should list the labels following the order given in the request.
Result: a, b, c
(a: 4.89 nM, b: 2.51 nM, c: 0.92 nM)

====

target: recombinant α-syn fibrils (Homo sapiens); construct: made in house; test: Competition binding assay against [^3H]PiB, α-syn fibrils
Endpoint name: Ki (nM)

Below: 4 compounds and their reported Ki.
Request: Supply reported Ki belonging to this compound: COc1ccc(-c2csc(-c3nc(-c4ccc5c(c4)OCO5)cs3)n2)cc1F [d2]
Result: 2.32

Request: Supply reported Ki belonging to this compound: COc1ccc(-c2csc(-c3nc(-c4cnc5c(c4)OCO5)cs3)n2)cc1OCCOCCF
Result: 0.96

Request: Supply reported Ki belonging to this compound: COc1ccc(-c2csc(-c3nc(-c4ccc5c(c4)OCO5)cs3)n2)cc1OCCOCCOCCF
Result: 1.74

Request: Supply reported Ki belonging to this compound: COc1ccc(-c2csc(-c3nc(-c4cnc5c(c4)OCO5)cs3)n2)c(OC)c1
Result: 1.35

I. COc1cnc(-c2csc(-c3nc(-c4ccc5c(c4)OCO5)cs3)n2)nc1
II. FCCOc1cnc(-c2csc(-c3nc(-c4cnc5c(c4)OCO5)cs3)n2)nc1
Request: Kindly identify the item with the lower Ki figure among these two: I and II Your answer should be the label attached to the chosen record.
Result: II
(II: 1.51 nM, I: 2.45 nM)

I. COc1ccc(-c2csc(-c3nc(-c4cnc5c(c4)OCO5)cs3)n2)cc1
II. FCCOc1cnc(-c2csc(-c3nc(-c4ccc5c(c4)OCO5)cs3)n2)nc1
III. ICCOCCOCCOc1cnc(-c2csc(-c3nc(-c4cnc5c(c4)OCO5)cs3)n2)nc1
Request: List from greatest to least Ki. Your reply should list the labels following the order given in the request.
Result: II, I, III
(II: 2.88 nM, I: 1.78 nM, III: 1.17 nM)

====

biological target: Aβ1−42 fibrils (Homo sapiens, UniProt P05067); construct: 1 mg of β-amyloid1–42 peptide (Abcam, Cambridge, UK); purchased Abcam; test: Competition binding assay against [^3H]PiB, Aβ1−42 fibrils; conditions: read-out: Ki Aβ
pKi: −log10 of the molar value.
Endpoint name: pKi

Below: 3 molecules and their reported pKi.
Request: Supply reported pKi belonging to this molecule: COc1ccc(-c2csc(-c3nc(-c4ccc5c(c4)OCO5)cs3)n2)cc1OCCOCCOCCF
Result: 6.68

Request: Supply reported pKi belonging to this molecule: FCCOc1ccc(-c2csc(-c3nc(-c4ccc5c(c4)OCO5)cs3)n2)cc1
Result: 7.00

Request: Supply reported pKi belonging to this molecule: Fc1ccc(-c2csc(-c3nc(-c4ccc5c(c4)OCO5)cs3)n2)cn1
Result: 6.82

I. Fc1ccc(-c2csc(-c3nc(-c4cnc5c(c4)OCO5)cs3)n2)cn1
II. FCCOCCOCCOc1cnc(-c2csc(-c3nc(-c4cnc5c(c4)OCO5)cs3)n2)nc1
III. FCCOCCOc1ccc(-c2csc(-c3nc(-c4cnc5c(c4)OCO5)cs3)n2)c(OCCOCCF)c1
IV. FCCOCCOCCOc1cnc(-c2csc(-c3nc(-c4ccc5c(c4)OCO5)cs3)n2)nc1
Request: Would you mind ranking these molecules by ascending pKi? Your reply should list the labels following the order given in the request.
Result: III, I, IV, II
(III: 6.66, I: 6.90, IV: 7.12, II: 7.33)

P. COc1ccc(-c2csc(-c3nc(-c4cnc5c(c4)OCO5)cs3)n2)cc1
Q. COc1cnc(-c2csc(-c3nc(-c4ccc5c(c4)OCO5)cs3)n2)nc1
Request: Kindly identify the item with the lower pKi figure among these two: P and Q Your answer should be the label attached to the chosen record.
Result: P

A. COc1ccc(-c2csc(-c3nc(-c4cnc5c(c4)OCO5)cs3)n2)c(OC)c1
B. FCCOCCOCCOc1ccc(-c2csc(-c3nc(-c4cnc5c(c4)OCO5)cs3)n2)cc1
Request: Kindly identify the item with the lower pKi figure among these two: A and B Your answer should be the label attached to the chosen record.
Result: A
(A: 6.83, B: 7.41)

1. COc1ccc(-c2csc(-c3nc(-c4ccc5c(c4)OCO5)cs3)n2)cc1F [d2]
2. COc1ccc(-c2csc(-c3nc(-c4cnc5c(c4)OCO5)cs3)n2)cc1F
3. COc1ccc(-c2csc(-c3nc(-c4cnc5c(c4)OCO5)cs3)n2)cc1OCCOCCF
Request: Would you mind ranking these molecules by ascending pKi? Your reply should list the labels following the order given in the request.
Result: 1, 2, 3
(1: 6.83, 2: 7.06, 3: 7.32)
